# Tested on: CCRIS mutagenicity, Ames/micronucleus/aberration tests
# RUN_DESCRIPTION: CCRIS mutagenicity studies
# DETAILS: Test System: AMES SALMONELLA TYPHIMURIUM; Strain/Indicator: TA1538; Metabolic Activation: NONE; Method: STANDARD PLATE
Active and inactive are the calls of the source. The rule behind the calls is not given here.
// one of active, inactive, no free text

Please share the test call associated with NCC1CCC(C(=O)c2ccc(CCC(=O)O)cc2)CC1 (stereo not drawn) .
inactive

Please share the test call associated with `CC(=O)Oc1ccccc1C(=O)Oc1ccccc1C(=O)O` .
inactive

Please share the test call associated with `CCN(CCCl)CCCNc1c2ccccc2nc2c1ccc1cccnc12` .
active

Please share the test call associated with O=C1OC(O)C(C(Cl)Cl)=C1Cl (stereo not drawn) .
active

Please share the test call associated with `Nc1ccc(S(N)(=O)=O)cc1` .
inactive

Please share the test call associated with COc1cc(NC(C)CCCN)c2ncccc2c1 (stereo not drawn) .
inactive

Please share the test call associated with `COc1cccc2c1C(=O)c1c(O)c3c(c(O)c1C2=O)C[C@@](O)(C(C)=O)C[C@@H]3O` .
inactive

Please share the test call associated with `Fc1c(F)c(F)c(Cl)c(F)c1F` .
inactive

Please share the test call associated with `CCCCCCCCCCCCS` .
inactive

Please share the test call associated with `CC(=O)CC(C)(C)O` .
inactive

Please share the test call associated with Cc1cc(C(O)c2ncc([N+](=O)[O-])n2C)c(O)c(C(C)(C)C)c1 (stereo not drawn) .
inactive

Please share the test call associated with CC(S)C(=O)NCC(=O)O (stereo not drawn) .
inactive

Please share the test call associated with `Clc1cc(Cl)nc(Cl)n1` .
inactive

* * *

# Tested on: CCRIS mutagenicity, Ames/micronucleus/aberration tests
# RUN_DESCRIPTION: CCRIS mutagenicity studies
# DETAILS: Test System: AMES SALMONELLA TYPHIMURIUM; Strain/Indicator: TA98; Metabolic Activation: RAT, LIVER, S-9, PHENOBARBITAL AND BETA-NAPHTHOFLAVONE; Method: PREINCUBATION
Activity calls are given as the source filed them. How the calls were made is not given here.
// one of True for active, False for inactive, no free text

Please share the test call associated with `C[C@H]1COc2c(N3CCN(C)CC3)c(F)cc3c(=O)c(C(=O)O)cn1c23` .
False

Please share the test call associated with `C[C@@H]1COc2c(N3CCN(C)CC3)c(F)cc3c(=O)c(C(=O)O)cn1c23` .
False

Please share the test call associated with `COc1cc2c(cc1OC)-c1c3c(cc4c1[C@H](C2)N(C)CC4)OCO3` .
True

Please share the test call associated with CCN(CC)CCCC(C)Nc1cc(OC)cc2cccnc12 (stereo not drawn) .
False

Please share the test call associated with `[Cl][Cr]([Cl])[Cl]` .
False

Please share the test call associated with `COc1ccc2c(c1)-c1nccc3cc(OC)c(O)c(c13)C2=O` .
True

Please share the test call associated with COc1cc(NC(C)CCCN)c2ncccc2c1 (stereo not drawn) .
False

Please share the test call associated with `O=C(Br)CBr` .
False

* * *

# Tested on: CCRIS mutagenicity, Ames/micronucleus/aberration tests
# RUN_DESCRIPTION: CCRIS mutagenicity studies
# DETAILS: Test System: E. COLI; Strain/Indicator: WP2; Metabolic Activation: NONE; Method: STANDARD PLATE
The source made the active and inactive calls. The rule behind the calls is not given here.
// one of label 1 (active), label 0 (inactive), no free text

Please share the test call associated with `O.[Al+3].[Al+3].[Na+].[Na+].[O-2].[O-2].[O-2].[O-2].[O-2].[O-2].[Si+4]` .
label 0

Please share the test call associated with `COS(C)(=O)=O` .
label 1

Please share the test call associated with `O=c1nc(NO)ccn1[C@@H]1O[C@H](CO)[C@@H](O)[C@H]1O` .
label 1

Please share the test call associated with `CN(N=O)C(N)=O` .
label 1

Please share the test call associated with `C[15NH][15N]=O` .
label 1

Please share the test call associated with `[Cl][Sn][Cl]` .
label 0

Please share the test call associated with CCN(CC)C(=O)Nc1ccc(OCC(O)CNC(C)(C)C)c(C(C)=O)c1 (stereo not drawn) .
label 0

Please share the test call associated with CNC(=O)C(C)SCCSP(=O)(OC)OC (stereo not drawn) .
label 1
